assay: Lipophilicity, log K in methanol water; format: physicochemical
Field 'label' (enum: t / f). Set to t when log K is strictly under 6; else f.

# molecule, qualitative label
measured = [
    ("CSc1nc(NCc2ccccc2)c2cnn(CC(Cl)c3ccccc3)c2n1 (stereo not drawn)", "t"),
    ("CSc1nc(NCCc2ccc(Cl)cc2)c2cnn(CC(Cl)c3ccccc3)c2n1 (stereo not drawn)", "f"),
    ("CSc1nc(NCCc2cccc(F)c2)c2cnn(CC(Cl)c3ccccc3)c2n1 (stereo not drawn)", "f"),
    ("CSc1nc(Nc2ccccc2)c2cnn(CC(Cl)c3ccccc3)c2n1 (stereo not drawn)", "t"),
    ("CSc1nc(NCCc2ccccc2)c2cnn(CC(Cl)c3ccc(Cl)cc3)c2n1 (stereo not drawn)", "f"),
    ("CSc1nc(Nc2cccc(Cl)c2)c2cnn(CC(Cl)c3ccccc3)c2n1 (stereo not drawn)", "f"),
    ("CSc1nc(NCCc2ccc(C)cc2)c2cnn(CC(Cl)c3ccccc3)c2n1 (stereo not drawn)", "f"),
    ("CCCSc1nc(Nc2cccc(Cl)c2)c2cnn(CC(Cl)c3ccccc3)c2n1 (stereo not drawn)", "f"),
]

Entry source: ChEMBL document CHEMBL1153611
